# key: entry, value: protein stability index
B1: CLCN6 (parent)
chain: MAGCRGSLCCCCRWCCCCGERETR

# Variants of: B1
# ASSAY_PROTOCOL: protein stability index of a GFP-peptide fusion (GPS, HEK-293T) (PSI 1-6); higher = more stable;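 further: lentivirally expressed fusions sorted by FACS into six bins by GFP to DsRed ratio, PSI derived from sequencing read proportions per bin multiplied by bin number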
# CONDITION_NOTES: c terminus: a fixed tail appended

A2H | 2.81

Please look at this variant and report its protein stability index: `C15A` 1.97

Supply recorded protein stability index for `C4I` here. 1.61

Look up and report measured protein stability index for this entry: `W14M` 1.14

Answer with the recorded protein stability index for the variant listed here: `E20N` 2.36
